B1: DYRK1B (parent)
chain: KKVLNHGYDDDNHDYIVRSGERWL

Variants of: B1
Experiment: protein stability index of a GFP-peptide fusion (GPS, HEK-293T) (PSI 1-6); higher = more stable;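 note: lentivirally expressed fusions sorted by FACS into six bins by GFP to DsRed ratio, PSI derived from sequencing read proportions per bin multiplied by bin number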
Details: c terminus: a fixed tail appended
readout: protein stability index
Numbers only.

Consider the following illustrative entries.
[[record]]
variant_descriptor = "E21H"
recorded_number = 2.4

[[record]]
variant_descriptor = "N12T"
recorded_number = 2.62

[[record]]
variant_descriptor = "R22M"
recorded_number = 2.57

[[record]]
variant_descriptor = "E21G"
recorded_number = 2.57

[[record]]
variant_descriptor = "K1F"
recorded_number = 2.41

[[record]]
variant_descriptor = "D10E"
recorded_number = 2.95

[[record]]
variant_descriptor = "L24T"
recorded_number = 3.51

[[record]]
variant_descriptor = "D9P"
recorded_number = 3.12

[[record]]
variant_descriptor = "D10Q"
recorded_number = 2.99

[[record]]
variant_descriptor = "N12D"
recorded_number = 3.4


Batch lookup, protein stability index per entry.
1. R18S
2. G7T
3. L4F

[3.1, 3.53, 2.59]

Batch lookup, protein stability index per entry.
1. R18Y
2. D9H
3. K2T

2.48
2.74
3.53

Batch lookup, protein stability index per entry.
1. R18E
2. I16L
3. R18I
4. D11Q
5. H13P
6. H6N

[3.75, 3.09, 2.62, 2.83, 3.57, 3.38]

Origin of the recorded values: the supplement of paper PMC10567573
